# targetSystem: Toll-like receptor 1/2 (Mus musculus) (UniProt Q9QUN7+Q9EPQ1)
# experimentalProtocol: Agonist activity at TLR1/TLR2 in wild type C57BL/6J mouse macrophages assessed as stimulation of TNF alpha release measured for 4 hrs by ELISA based assay relative to diprovocim-1
# Format: cell-based
# Parameters: concentration or dose not given beside the values
# conditionDescription: Macrophage, filed as agonist
The molecules listed here are annotated with their Activity.

CC(C)[C@H](NC(=O)OC(C)(C)C)C(=O)OCCCCCCCCCCCCNC(=O)[C@@H]1CN(C(=O)c2ccc(C(=O)N3C[C@@H](C(=O)N[C@H]4C[C@@H]4c4ccccc4)[C@H](C(=O)N[C@H]4C[C@@H]4c4ccccc4)C3)cc2)C[C@H]1C(=O)N[C@H]1C[C@@H]1c1ccccc1: 180%
CNC(=O)CCCCCCCCCCCNC(=O)[C@@H]1CN(C(=O)c2ccc(C(=O)N3C[C@@H](C(=O)N[C@H]4C[C@@H]4c4ccccc4)[C@H](C(=O)N[C@H]4C[C@@H]4c4ccccc4)C3)cc2)C[C@H]1C(=O)N[C@H]1C[C@@H]1c1ccccc1: 150%

Now take the following molecule into account.
I'd like to know its Activity. The molecule in question is CC(C)(C)OC(=O)NNC(=O)OCCCCCCCCCCCCNC(=O)[C@@H]1CN(C(=O)c2ccc(C(=O)N3C[C@@H](C(=O)N[C@H]4C[C@@H]4c4ccccc4)[C@H](C(=O)N[C@H]4C[C@@H]4c4ccccc4)C3)cc2)C[C@H]1C(=O)N[C@H]1C[C@@H]1c1ccccc1
220%
